TARGET OR TEST SYSTEM: S. aureus FtsZ (Staphylococcus aureus, UniProt P0A031)
Sequence (P0A031 whole entry): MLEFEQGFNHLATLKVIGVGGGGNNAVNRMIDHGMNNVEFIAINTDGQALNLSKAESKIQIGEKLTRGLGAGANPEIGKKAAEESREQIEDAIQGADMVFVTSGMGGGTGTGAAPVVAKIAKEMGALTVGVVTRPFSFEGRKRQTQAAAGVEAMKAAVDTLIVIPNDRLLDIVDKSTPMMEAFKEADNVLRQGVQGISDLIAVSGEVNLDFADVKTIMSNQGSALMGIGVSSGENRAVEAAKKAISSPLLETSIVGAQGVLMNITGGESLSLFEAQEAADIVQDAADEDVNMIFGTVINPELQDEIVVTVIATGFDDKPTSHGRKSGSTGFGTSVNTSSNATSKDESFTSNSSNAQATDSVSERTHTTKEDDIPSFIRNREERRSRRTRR
ASSAY PROTOCOL: Biochemical GTPase-FtsZ inhibition assay

COMPOUND: COc1cc2cc(OC)c1Oc1cc(c(O)cc1Cl)C/C=C\Cc1cc(O)cc(O)c1Oc1cc(c(O)cc1Cl)C/C=C(/Cl)C2 [VU0848355]
IC50: > 250 µM
